List of log10(Time) values.
Test system: Rattus norvegicus
Test: Recovery of Roc-induced neuromuscular block in Sprague-Dawley rat assessed as […] ratio (TOFr) >= 90% by measuring recovery time at 25 mg/kg, iv (reference value: 597 seconds)
Assay type: functional
value-type: log10(Time) (log10 of the value in s)

CC[C@]12N3Cc4c(OCCCS(=O)(=O)[O-])ccc(OCCCS(=O)(=O)[O-])c4CN1C(=O)N1CN4C(=O)N5CN6C(=O)N7CN8C(=O)N9Cc%10c(OCCCS(=O)(=O)[O-])ccc(OCCCS(=O)(=O)[O-])c%10CN%10C(=O)N(CN%11C(=O)N(CN%12C(=O)N(CN(C3=O)[C@]12CC)[C@@H]4[C@H]%125)[C@@H]6[C@H]%117)[C@]8(CC)[C@@]9%10CC.[Na+].[Na+].[Na+].[Na+] ... 2.54
Cc1cc(OCCCS(=O)(=O)[O-])c2c(c1OCCCS(=O)(=O)[O-])CN1C(=O)N3CN4C(=O)N5CN6C(=O)N7CN8C(=O)N9Cc%10c(c(OCCCS(=O)(=O)[O-])cc(C)c%10OCCCS(=O)(=O)[O-])CN%10C(=O)N(CN%11C(=O)N(CN%12C(=O)N(CN%13C(=O)N(C2)C1(C)C%133C)C4C%125)C6C%117)C8(C)C%109C.[Na+].[Na+].[Na+].[Na+] (mixture of isomers) ... 2.18
COc1cc(OCCCS(=O)(=O)[O-])c2c(c1OCCCS(=O)(=O)[O-])CN1C(=O)N3CN4C(=O)N5CN6C(=O)N7CN8C(=O)N9Cc%10c(c(OCCCS(=O)(=O)[O-])cc(OC)c%10OCCCS(=O)(=O)[O-])CN%10C(=O)N(CN%11C(=O)N(CN%12C(=O)N(CN%13C(=O)N(C2)C1(C)C%133C)C4C%125)C6C%117)C8(C)C%109C.[Na+].[Na+].[Na+].[Na+] (stereo unspecified) ... 1.60
C[C@]12N3Cc4c(c(OCCC(=O)[O-])c5ccccc5c4OCCC(=O)[O-])CN1C(=O)N1CN4C(=O)N5CN6C(=O)N7CN8C(=O)N9Cc%10c(c(OCCC(=O)[O-])c%11ccccc%11c%10OCCC(=O)[O-])CN%10C(=O)N(CN%11C(=O)N(CN%12C(=O)N(CN(C3=O)[C@]12C)[C@@H]4[C@H]%125)[C@@H]6[C@H]%117)[C@]8(C)[C@@]9%10C.[Na+].[Na+].[Na+].[Na+] ... 1.98
C[C@]12N3Cc4c(c(OCCCS(=O)(=O)[O-])c5c(c4OCCCS(=O)(=O)[O-])CCC5)CN1C(=O)N1CN4C(=O)N5CN6C(=O)N7CN8C(=O)N9Cc%10c(c(OCCCS(=O)(=O)[O-])c%11c(c%10OCCCS(=O)(=O)[O-])CCC%11)CN%10C(=O)N(CN%11C(=O)N(CN%12C(=O)N(CN(C3=O)[C@]12C)[C@@H]4[C@H]%125)[C@@H]6[C@H]%117)[C@]8(C)[C@@]9%10C.[Na+].[Na+].[Na+].[Na+] ... 1.38
CC[C@]12N3Cc4c(c(OCCCS(=O)(=O)[O-])c(C)c(C)c4OCCCS(=O)(=O)[O-])CN1C(=O)N1CN4C(=O)N5CN6C(=O)N7CN8C(=O)N9Cc%10c(c(OCCCS(=O)(=O)[O-])c(C)c(C)c%10OCCCS(=O)(=O)[O-])CN%10C(=O)N(CN%11C(=O)N(CN%12C(=O)N(CN(C3=O)[C@]12CC)[C@@H]4[C@H]%125)[C@@H]6[C@H]%117)[C@]8(CC)[C@@]9%10CC.[Na+].[Na+].[Na+].[Na+] ... 1.49
C[C@]12N3Cc4c(c(OCC(C(=O)[O-])C(=O)[O-])c5ccccc5c4OCC(C(=O)[O-])C(=O)[O-])CN1C(=O)N1CN4C(=O)N5CN6C(=O)N7CN8C(=O)N9Cc%10c(c(OCC(C(=O)[O-])C(=O)[O-])c%11ccccc%11c%10OCC(C(=O)[O-])C(=O)[O-])CN%10C(=O)N(CN%11C(=O)N(CN%12C(=O)N(CN(C3=O)[C@]12C)[C@@H]4[C@H]%125)[C@@H]6[C@H]%117)[C@]8(C)[C@@]9%10C.[Na+].[Na+].[Na+].[Na+].[Na+].[Na+].[Na+].[Na+] ... 1.92
Cc1c(C)c(OCCCS(=O)(=O)[O-])c2c(c1OCCCS(=O)(=O)[O-])CN1C(=O)N3CN4C(=O)N5CN6C(=O)N7CN8C(=O)N9Cc%10c(c(OCCCS(=O)(=O)[O-])c(C)c(C)c%10OCCCS(=O)(=O)[O-])CN%10C(=O)N(CN%11C(=O)N(CN%12C(=O)N(CN%13C(=O)N(C2)[C@]1(C)[C@]%133C)[C@@H]4[C@@H]5%12)[C@@H]6[C@@H]7%11)[C@]8(C)[C@]%109C.[Na+].[Na+].[Na+].[Na+] ... 1.48
C[C@]12N3Cc4c(c(OCC(=O)[O-])c5ccccc5c4OCC(=O)[O-])CN1C(=O)N1CN4C(=O)N5CN6C(=O)N7CN8C(=O)N9Cc%10c(c(OCC(=O)[O-])c%11ccccc%11c%10OCC(=O)[O-])CN%10C(=O)N(CN%11C(=O)N(CN%12C(=O)N(CN(C3=O)[C@]12C)[C@@H]4[C@H]%125)[C@@H]6[C@H]%117)[C@]8(C)[C@@]9%10C.[Na+].[Na+].[Na+].[Na+] ... 2.03
CC[C@]12N3Cc4c(c(OCCCS(=O)(=O)[O-])c5ccccc5c4OCCCS(=O)(=O)[O-])CN1C(=O)N1CN4C(=O)N5CN6C(=O)N7CN8C(=O)N9Cc%10c(c(OCCCS(=O)(=O)[O-])c%11ccccc%11c%10OCCCS(=O)(=O)[O-])CN%10C(=O)N(CN%11C(=O)N(CN%12C(=O)N(CN(C3=O)[C@]12CC)[C@@H]4[C@H]%125)[C@@H]6[C@H]%117)[C@]8(CC)[C@@]9%10CC.[Na+].[Na+].[Na+].[Na+] ... 1.28
O=C1N2Cc3c(OCCCS(=O)(=O)[O-])ccc(OCCCS(=O)(=O)[O-])c3CN3C(=O)N4CN5C(=O)N6CN7C(=O)N8CN9C(=O)N%10Cc%11c(OCCCS(=O)(=O)[O-])ccc(OCCCS(=O)(=O)[O-])c%11CN%11C(=O)N(CN%12C(=O)N(CN%13C(=O)N(CN1C41CCCCC231)[C@H]5[C@H]6%13)[C@H]7[C@H]8%12)C91CCCCC%10%111.[Na+].[Na+].[Na+].[Na+] (stereo partly specified) ... 2.31
